method summary: Cycloheximide Counterscreen for Small Molecule Inhibitors of Shiga Toxin
settings: cell reporter, cycloheximide protein synthesis inhibition counterscreen; stronger effect = higher value
The campaign covered roughly 300,000 compounds. About 37,000 (12%) were called active. The sample holds actives, similar compounds and a random draw of the others, so the mix is not that of the screen.
endpoint: max response (%)
Answer in %, number only, no unit symbol.

GET /values?readout=max response&item= Cc1cc(C)cc(NC(=O)NC2CCCCCCC2)c1 17.4

GET /values?readout=max response&item= CC(C)n1cnc2c(Nc3cccc(Cl)c3)nc(N(CCO)CCCO)nc21 -7.35

* * *

method summary: Cycloheximide Counterscreen for Small Molecule Inhibitors of Shiga Toxin; also: read at 38.3 µM for the half of the compounds with a filed dose; 0% is about no effect
settings: cell reporter, cycloheximide protein synthesis inhibition counterscreen
About 37,000 (12%) of roughly 300,000 compounds were called active. No stated cut-off is given here; in the data, active means max response mostly above about 13% (no sharp cut-off); inactive means mostly below about 14%. Many of the other results were omitted from the sample, so actives are more common in it than they were.
Permitted responses: 1.0 (active), 0.0 (inactive)

Test call for this molecule, please: O=C(Nc1cccn(Cc2c(Cl)cccc2Cl)c1=O)c1ccc(Cl)cc1 0.0

Test call for this molecule, please: Cc1nn(-c2ccccc2)c(Cl)c1/C=C/C(=O)c1ccc(O)cc1 1.0

Test call for this molecule, please: O=C(NCCc1ccc(Cl)cc1Cl)c1cc([N+](=O)[O-])c[nH]c1=O 0.0

Test call for this molecule, please: Brc1ccccc1/C=N/Nc1nc2ccccc2o1 1.0

Test call for this molecule, please: COCC1CCN(C(=O)C2CCC(=O)N(CC3CCCCC3)C2)CC1 (stereo not given) 0.0

Next:
Test call for this molecule, please: COC(=O)CC1=NN(c2ccccc2)C(=O)C1 0.0

Test call for this molecule, please: COc1ccc(C(=O)NCCNc2ccc([N+](=O)[O-])cn2)cc1 0.0

* * *

method summary: Cycloheximide Counterscreen for Small Molecule Inhibitors of Shiga Toxin; also: read at 38.3 µM for the half of the compounds with a filed dose; 0% is about no effect
settings: cell reporter, cycloheximide protein synthesis inhibition counterscreen
In all, about 300,000 compounds went through this assay and about 37,000 (12%) were called active. Rule as the data show it: active = max response mostly above about 13% (no sharp cut-off); inactive = mostly below about 14%. This is one part of a sample in which actives are shown more often than they occur.
Permitted responses: active, inactive

Test call for this molecule, please: CC(C)c1ccc(S(=O)(=O)N2CCN(C(=O)c3ccc(N4CCCC4)c([N+](=O)[O-])c3)CC2)cc1 inactive

Test call for this molecule, please: CCc1nc2ccc(C(=O)N3CCN(c4cccc(Cl)c4)CC3)cc2nc1CC inactive

Test call for this molecule, please: CCOC(=O)c1c(N)nn(C(=O)c2ccccc2)c1-c1ccccc1 inactive

Test call for this molecule, please: Cc1nn(C(=O)c2ccoc2C)c(N)c1-c1ccccc1 active

Test call for this molecule, please: Cc1c(CN2CCCC(C(=O)c3cccc(Cl)c3)C2)c(=O)n(-c2ccccc2)n1C (stereo not given) inactive

* * *

method summary: Cycloheximide Counterscreen for Small Molecule Inhibitors of Shiga Toxin; also: read at 38.3 µM for the half of the compounds with a filed dose; 0% is about no effect
settings: cell reporter, cycloheximide protein synthesis inhibition counterscreen
Screen size: about 300,000 compounds; about 37,000 (12%) were called active. No stated cut-off is given here; in the data, active means max response mostly above about 13% (no sharp cut-off); inactive means mostly below about 14%. The sample as a whole holds a higher share of actives than the screen did.
Permitted responses: active, inactive

Test call for this compound, please: COc1ccc(/C=N/S(=O)(=O)c2ccccc2)cc1OC inactive

* * *

method summary: Cycloheximide Counterscreen for Small Molecule Inhibitors of Shiga Toxin; also: read at 38.3 µM for the half of the compounds with a filed dose; 0% is about no effect
settings: cell reporter, cycloheximide protein synthesis inhibition counterscreen; stronger effect = higher value
About 37,000 (12%) of roughly 300,000 compounds were called active. What follows is part of a selection rich in actives, with near analogues and random picks from the rest.
Quick reference for max response among some compounds
Answer in %, number only, no unit symbol.

Some compounds with known max response results, for comparison:
GET /values?readout=max response&item= CN(C)C(CNC(=O)c1cccc(C#N)c1)c1ccco1 (stereo unspecified) 8.17

GET /values?readout=max response&item= O=C(CCc1n[nH]c(=O)[nH]c1=O)N/N=C/c1ccc(Br)o1 -9.24

GET /values?readout=max response&item= O=C(CN(c1ccccc1)S(=O)(=O)c1ccc(Cl)cc1)Nc1ccccc1C(=O)N1CCCC1 -1.5

GET /values?readout=max response&item= Cc1cccc(NC(=O)Cn2cc(C(=O)c3ccco3)c3ccccc32)c1 -2.38

GET /values?readout=max response&item= COc1ccc(C(=O)COC(=O)COc2ccc(C)c(C)c2)cc1 -1.99

GET /values?readout=max response&item= O=C(NCc1cccs1)c1ccc(CS(=O)Cc2ccccc2Cl)o1 (stereo unspecified) -1.19

GET /values?readout=max response&item= CCOC(=O)C1(Cc2cccc(OC)c2)CCCN(S(=O)(=O)c2cccnc2)C1 (stereo unspecified) -3.01

GET /values?readout=max response&item= COc1ccccc1OCc1nc2ccccc2s1 27.4

GET /values?readout=max response&item= CCOC(=O)C1CN(S(=O)(=O)c2ccc(OC)cc2)c2cc(Cl)ccc2O1 (stereo unspecified) -3.3

GET /values?readout=max response&item= COc1ccc(Cn2c(=O)sc3ccccc32)cc1OC -0.76

Next:
GET /values?readout=max response&item= CC1CCC(NC(=O)CN(C)S(=O)(=O)c2ccc3c(c2)c(=O)n(C)c(=O)n3C)CC1 (stereo unspecified) -2.52

GET /values?readout=max response&item= COc1cc(OC)c(-n2cc(-c3ccc(Cl)cc3)[nH]c2=O)cc1Cl 0.883

GET /values?readout=max response&item= Cn1c(CCc2ccccc2)nnc1SCC(N)=O -1.26

GET /values?readout=max response&item= CCC(C)(C)c1ccc(OCC(=O)N(C)C)c(C(C)(C)CC)c1 -3.16

GET /values?readout=max response&item= O=S(=O)(NCCc1ccc(Cl)cc1)c1cccs1 7.85

GET /values?readout=max response&item= O=c1oc2ccccc2c(CNc2ccccc2)c1[N+](=O)[O-] -2.06

GET /values?readout=max response&item= O=C(/C=C/c1ccc(Cl)cc1Cl)NCc1ccco1 34.8

GET /values?readout=max response&item= O=C(Nc1cccc(Cl)c1)Nc1ccccc1NS(=O)(=O)c1cccs1 11

GET /values?readout=max response&item= CN(C(=O)CSc1nnc(-c2n[nH]c3ccccc23)o1)c1ccccc1 15.1

GET /values?readout=max response&item= FC(F)(F)Oc1ccc(NC(=S)NCc2ccccc2)cc1 1.72

GET /values?readout=max response&item= COc1ccccc1N1CC(C(=O)Nc2nnc(SCC(=O)NC(C)C)s2)CC1=O (stereo unspecified) -0.494

GET /values?readout=max response&item= O=C(NCc1ccco1)C(=O)c1cn(CC(=O)N2CCCCCC2)c2ccccc12 2.39

GET /values?readout=max response&item= CN(Cc1ccccc1)C(=O)C(=O)c1cn(CC(=O)N2CCCC2)c2ccccc12 -3.43
